// provenance: patent US20120207760A1

TARGET_DESC: recombinant homotrimeric HA, A/swine/Ontario/01911-2/99 H4N6 (Influenza A virus A/swine/Ontario/01911-2/99 (H4N6))
TEST: trimeric HA microarray, transfection set 3
REPORTED_CONDITIONS: remark: other sources report otherwise
Give measured Trimeric HA Binding RLU for each item. Keep answers brief.
A number alone suffices; assume RLU.

Exercise: Quick check: Trimeric HA Binding RLU of TCN-531 (5091_H13) (antibody, V domains shown) VH: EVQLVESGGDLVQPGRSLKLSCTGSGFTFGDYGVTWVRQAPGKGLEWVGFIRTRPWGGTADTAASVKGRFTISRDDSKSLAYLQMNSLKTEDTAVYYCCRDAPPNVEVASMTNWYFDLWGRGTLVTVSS VL: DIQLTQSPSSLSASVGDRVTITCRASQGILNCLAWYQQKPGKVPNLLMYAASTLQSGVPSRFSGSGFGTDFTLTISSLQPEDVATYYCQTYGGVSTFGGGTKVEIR ?
Key: 296

Exercise: Quick check: Trimeric HA Binding RLU of TCN-504 (3251_K17) (antibody, V domains shown) VH: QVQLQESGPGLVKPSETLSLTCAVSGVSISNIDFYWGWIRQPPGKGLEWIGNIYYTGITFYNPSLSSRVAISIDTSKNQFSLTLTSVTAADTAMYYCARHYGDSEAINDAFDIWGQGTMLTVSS VL: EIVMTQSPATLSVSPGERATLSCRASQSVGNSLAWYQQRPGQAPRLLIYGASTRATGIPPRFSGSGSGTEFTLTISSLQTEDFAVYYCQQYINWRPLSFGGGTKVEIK ?
Key: 34500

Exercise: Quick check: Trimeric HA Binding RLU of TCN-529 (5297_H01) (antibody, V domains shown) VH: QITLRESGPTLVKPTQTLTLTCTFSGFSLSTNGVNVGWIRQPPGKALEWLALIYWDDDKRYSPSLKRRLTITKDTSKNQVVLTLTNMDPVDTATYYCAHRPDFYGDFEYWGPGTLVTVSS VL: QSALTQPASVSGSPGQSITISCTGSSSDIGGYNYVSWYQQHPGKAPKLMIYDVNNRPSGVSNRFSGSKSGNTASLTISGLQTDDEADYYCGSYTGSPHYVFGTGTKVTVL ?
Key: 45

Exercise: Quick check: Trimeric HA Binding RLU of TCN-533 (5256_A17) (antibody, V domains shown) VH: QVQLVQSGADVKKPGSSVTVSCKASGGSFSNYGINWVRQAPGQGLEWMGGIIPLINAPNYAPKFQGRVTITADMFSNIVSLQLTSLRTDDTAVYYCARRKMTTAIDYWGQGTLVTVSS VL: QPVLSQPPSASASLGASVTLTCTLSSGFDNYQVAWYQQRPGKGPRFVMRVGNGGNVASKGDGIPDRFSVSGSGLNRYLTIKNIQEDDESDYYCGADHGSGNNFVSPYVFGGGTKLTVL ?
Key: 180

Exercise: Quick check: Trimeric HA Binding RLU of TCN-523 (5248_A17) (antibody, V domains shown) VH: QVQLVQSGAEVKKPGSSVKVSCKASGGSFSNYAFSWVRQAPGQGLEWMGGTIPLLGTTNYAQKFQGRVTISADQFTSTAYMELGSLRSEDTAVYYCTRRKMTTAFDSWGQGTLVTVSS VL: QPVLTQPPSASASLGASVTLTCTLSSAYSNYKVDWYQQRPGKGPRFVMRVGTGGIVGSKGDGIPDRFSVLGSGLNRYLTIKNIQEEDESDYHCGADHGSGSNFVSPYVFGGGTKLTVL ?
Key: 1640

Exercise: Quick check: Trimeric HA Binding RLU of TCN-530 (5248_H10a) (antibody, V domains shown) VH: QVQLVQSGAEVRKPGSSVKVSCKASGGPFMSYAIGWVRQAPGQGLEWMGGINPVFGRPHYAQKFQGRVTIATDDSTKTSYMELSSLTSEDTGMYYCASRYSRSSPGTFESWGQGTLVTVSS VL: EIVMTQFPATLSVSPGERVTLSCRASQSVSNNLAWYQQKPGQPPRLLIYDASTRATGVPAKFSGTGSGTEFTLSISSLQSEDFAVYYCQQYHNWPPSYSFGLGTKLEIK ?
Key: 123
